- method summary: ATG_SREBP_CIS: Attagene CIS-FACTORIAL HepG2 Assay for human Sterol Regulatory Element Binding (SREBP) (AID 2282962)
- particulars: HepG2 Attagene cis-factorial SREBP reporter, mRNA; actives raise or lower the signal
Activity calls are given as the source filed them. Rule for the calls: active = hit-call score of the fitted dose curve at least 0.9, where 1 is the maximum; inactive = score below 0.9.
Outcome codes: 1 (active), -1 (inactive)

* OC[C@H]1O[C@@H]2O[C@H]3[C@H](O)[C@@H](O)[C@@H](O[C@H]4[C@H](O)[C@@H](O)[C@@H](O[C@H]5[C@H](O)[C@@H](O)[C@@H](O[C@H]6[C@H](O)[C@@H](O)[C@@H](O[C@H]7[C@H](O)[C@@H](O)[C@@H](O[C@H]8[C@H](O)[C@@H](O)[C@@H](O[C@H]9[C@H](O)[C@@H](O)[C@@H](O[C@H]1[C@H](O)[C@H]2O)O[C@@H]9CO)O[C@@H]8CO)O[C@@H]7CO)O[C@@H]6CO)O[C@@H]5CO)O[C@@H]4CO)O[C@@H]3CO | -1
* COc1cc(CCC(C)=O)ccc1O | -1
* O=CN1CCOCC1 | -1
* O=C(O)c1ccc(O)cc1 | -1
* CCCCCCCCCCCCCCN(CCO)CCO | 1
* CC(C)(CO)[C@@H](O)C(=O)NCCC(=O)O | -1
* CCCCC(CC)COC(C)=O (configuration not stated) | -1

====

- method summary: ATG_NRF2_ARE_CIS: Attagene CIS-FACTORIAL HepG2 Assay for human Nuclear Factor Erythroid 2 Related Factor 2 (NFR2) response to Antioxidant Response Elements (ARE) (AID 2282992);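 for AC50: reporter mRNA level measured by RT-PCR and capillary electrophoresis fluorescence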
- particulars: HepG2 Attagene ARE/NRF2 reporter, transcription factor activity; actives raise or lower the signal
Activity calls are given as the source filed them. How the source made its calls: active means hit-call score of the fitted dose curve at least 0.9, where 1 is the maximum; inactive means score below 0.9.
value kind: AC50

• CCCCCCCC/C=C\CCCCCCCC(=O)OCC = inactive
• C=C(C#N)C(=O)OCC = inactive
• CC[N+](C)(CC)CC = inactive
• ON=C1CCCCC1 = inactive
• CN1C(=O)c2ccccc2C1=O = inactive
• O=CCc1ccccc1 = inactive
• C=C(C)C(=O)OCCOCCOCCOC(=O)C(=C)C = inactive
• CCCSc1ccc2nc(NC(=O)OC)[nH]c2c1 = inactive
• CCOC(=O)CC(C)O (configuration not stated) = inactive
• Nc1ccn([C@H]2CS[C@@H](CO)O2)c(=O)n1 = inactive
• c1ccc2cc(Nc3ccc(Nc4ccc5ccccc5c4)cc3)ccc2c1 = inactive
• CCCCCCCCCCCCCC(=O)OCC(O)CO (configuration not stated) = 112 µM (active)
• C=C(C)C(=O)OCCOCCOCCOCCOC(=O)C(=C)C = 69.7 µM (active)
• CC(C)(C)C1=CC(=O)C(C(C)(C)C)=CC1=O = 13.7 µM (active)
• c1ccc2[nH]cnc2c1 = inactive
• O=C(O)c1cccnc1C(=O)O = inactive
• BrCc1cccc(Oc2ccccc2)c1 = 58.4 µM (active)
• Cc1ncc[nH]1 = inactive
• CC(=O)NCCO = inactive
• Nc1c(S(=O)(=O)O)cc(Br)c2c1C(=O)c1ccccc1C2=O = 73.8 µM (active)
• CCOc1ccccc1O = inactive
• CCCOC(=O)c1c(Cl)c(Cl)c(Cl)c(Cl)c1C(=O)OCCC = 55.3 µM (active)
• CCOCCOCCOCC = inactive
• CCCCCC(C=O)=Cc1ccccc1 = 100 µM (active)
• C1=CC2C3C=CC(C3)C2C1 (configuration not stated) = inactive
• CCCC(=O)OC(C)(C)Cc1ccccc1 = 145 µM (active)
• CCCC(=O)C(CC)Sc1ccoc1C (configuration not stated) = 27.7 µM (active)
